Biological target: Biotinylated SARS-CoV-2 spike S1 protein (SARS-CoV-2, Wuhan, UniProt P0DTC2, biotin (biotinylated))
Experiment: SPR
Property Measured: binding result

mAb29 (regdanvimab) (antibody, V domains shown) VH: QITLKESGPTLVKPTQTLTLTCSFSGFSLSTSGVGVGWIRQPPGKALEWLALIDWDDNKYHTTSLKTRLTISKDTSKNQVVLTMTNMDPVDTATYYCARIPGFLRYRNRYYYYGMDVWGQGTTVTVSS VL: ELVLTQPPSVSAAPGQKVTISCSGSSSNIGNNYVSWYQQLPGTAPKLLIYDNNKRPSGIPDRFSGSKSGTSATLGITGLQTGDEADYYCGTWDSSLSAGVFGGGTELTVL :: binds

// provenance: paper PMC10266124
